target: human Src enzyme (Homo sapiens); construct: purchased Carna Biosciences, Inc. 08-173; assay: Src enzyme inhibitory activity (time-resolved fluorometry, biotinylated peptide phosphorylation); assay type: biochemical; conditions: biotinylated peptide phosphorylation, read-out: SRC_IC50
Sequence (P12931 whole entry): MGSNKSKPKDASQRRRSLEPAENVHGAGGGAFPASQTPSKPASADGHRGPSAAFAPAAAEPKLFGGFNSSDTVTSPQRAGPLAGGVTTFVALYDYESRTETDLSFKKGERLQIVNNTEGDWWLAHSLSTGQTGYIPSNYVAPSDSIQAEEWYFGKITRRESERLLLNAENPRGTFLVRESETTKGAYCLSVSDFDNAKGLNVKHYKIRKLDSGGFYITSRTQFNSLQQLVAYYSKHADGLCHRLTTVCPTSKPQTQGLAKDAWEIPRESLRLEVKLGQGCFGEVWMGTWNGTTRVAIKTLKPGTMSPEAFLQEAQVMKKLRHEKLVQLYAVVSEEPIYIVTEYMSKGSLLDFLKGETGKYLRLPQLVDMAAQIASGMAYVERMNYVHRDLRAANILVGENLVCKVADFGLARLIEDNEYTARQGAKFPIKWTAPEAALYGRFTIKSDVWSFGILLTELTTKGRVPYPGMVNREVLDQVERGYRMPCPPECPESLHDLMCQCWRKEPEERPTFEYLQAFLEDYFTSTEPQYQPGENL
value-kind: IC50 (nM)

Please review the entries below; each comes with its answer.
• Cc1cc(Oc2ccccc2F)cc(F)c1-n1ncc(C(=O)c2cc3cc(OC(F)F)c(N4CCOCC4)cc3[nH]2)c1N = 80
• Cc1ccccc1Oc1cc(C)c(-n2ncc(C(=O)c3cc4cc(F)c(NS(=O)(=O)C5CC5)cc4[nH]3)c2N)cn1 = 79

a. Cc1cc2cc(C(=O)c3cnn(-c4cnc(Oc5ccccc5F)cc4C)c3N)[nH]c2cc1NS(=O)(=O)c1cccc(C(F)(F)F)c1
b. Cc1cnc(F)c(S(=O)(=O)Nc2cc3[nH]c(C(=O)c4cnn(-c5cnc(Oc6c(F)cccc6F)cc5C)c4N)cc3cc2F)c1
c. Cc1cc2cc(C(=O)c3cnn(-c4cnc(Oc5cccc(Cl)c5)cc4C)c3N)[nH]c2cc1NS(=O)(=O)CCCF
d. Cc1cc(Oc2ccccc2F)cc(F)c1-n1ncc(C(=O)c2cc3cc(NS(C)(=O)=O)c(Cl)cc3[nH]2)c1N
In this exercise, place the 4 compounds in ascending sequence of their recorded IC50. A complete answer lists every label in the requested sequence.
d, c, b, a
(d: 19 nM, c: 170 nM, b: 450 nM, a: 1900 nM)

I. Cc1cc(Oc2ccccc2F)ncc1-n1ncc(C(=O)c2cc3cc(F)c(NS(=O)(=O)N4CCOCC4)cc3[nH]2)c1N
II. COc1cc2[nH]c(C(=O)c3cnn(-c4ccc(Oc5ccccc5F)cc4C)c3N)cc2cc1NS(C)(=O)=O
III. Cc1cc(Oc2cccc(F)c2F)cc(F)c1-n1ncc(C(=O)c2cc3cc(F)c(NS(=O)(=O)C4CC4)cc3[nH]2)c1N
Given 3 compounds, produce a descending ranking by IC50. Thanks in advance for listing the labels in the requested order.
III, I, II
(III: 380 nM, I: 120 nM, II: 2.6 nM)

I. Cc1cc(Oc2cccc(F)c2F)cc(F)c1-n1ncc(C(=O)c2cc3cc(F)c(NS(C)(=O)=O)cc3[nH]2)c1N
II. Cc1cc(Oc2ccccc2F)cc(F)c1-n1ncc(C(=O)c2cc3cc(OCC(F)F)c(N4CCOC4=O)cc3[nH]2)c1N
III. Nc1c(C(=O)c2cc3cc(F)c(NS(=O)(=O)CCCF)cc3[nH]2)cnn1-c1ccc(Oc2ccccn2)cc1Cl
IV. Cc1cc2cc(C(=O)c3cnn(-c4ccc(Oc5ccccc5F)cc4C)c3N)[nH]c2cc1N1C(=O)N[C@@H](C(C)C)C1=O
Endpoint returns the given compounds ordered by ascending IC50. Respond with an ordered listing of the labels, as requested.
II, III, IV, I
(II: 6.4 nM, III: 22 nM, IV: 97 nM, I: 160 nM)

a. Cc1cc2cc(C(=O)c3cnn(-c4c(C)cc(Oc5ccccc5Cl)cc4F)c3N)[nH]c2cc1NS(C)(=O)=O
b. Cc1cc(Oc2ccccc2F)ncc1-n1ncc(C(=O)c2cc3cc(F)c(NS(=O)(=O)CC(=O)N4CCCC4)cc3[nH]2)c1N
// select label with min value of measured IC50 from [ a , b ] Refer to your chosen item by its label in the answer.
b
